test system: HCC 2998; assay: NCI tumour cell line growth inhibition, 48 h
Calls of active or inactive are those of the source. Cut-off read from the data, not from the text of the source: active = GI50 up to about 1.1 µM and inactive = higher.
Record form. Attribute: GI50. Fill in for each entry.

Worked cases, GI50 given:
[
  {
    "COMPOUND": "Cc1ccc(-c2cs/c(=N\\c3ccccc3)n2NC(=O)c2ccncc2)cc1",
    "GI50": "75.2 µM (inactive)"
  },
  {
    "COMPOUND": "OC1=CN=COc2ccccc21",
    "GI50": "> 100 µM (inactive)"
  },
  {
    "COMPOUND": "O=C(CCC(=O)Nc1cccc(Cl)c1)CC(=O)c1ccc(F)cc1",
    "GI50": "> 100 µM (inactive)"
  },
  {
    "COMPOUND": "CCc1cccc(C)c1NC(=O)CC1C(=O)Nc2ccccc2S1(=O)=O (stereo unspecified)",
    "GI50": "16.8 µM (inactive)"
  },
  {
    "COMPOUND": "COc1cc2c(c(OC)c1)[C@H](C)N(Cc1ccccc1)C(C)C2 (stereo partly specified)",
    "GI50": "33 µM (inactive)"
  }
]

Now consider the entry below.
Value lookup for GI50; key = COc1ccc(C2C=C(c3ccc(C)cc3)N(c3ccc(OC)cc3[N+](=O)[O-])C3C(=O)OC(=O)C23)c(OC)c1 (stereo unspecified)
29.9 µM (inactive)

###

test system: HCC 2998; test: NCI tumour cell line growth inhibition, 48 h
Calls of active or inactive are those of the source. Cut-off read from the data, not from the text of the source: active = GI50 up to about 1.1 µM and inactive = higher.
Consider the following compounds; for each one, report its GI50.

[
  {
    "COMPOUND": "NS(=O)(=O)c1ccc(-n2c(-c3cccs3)nc3ccc(I)cc3c2=O)cc1",
    "GI50": "22.1 µM (inactive)"
  },
  {
    "COMPOUND": "CCCCCCCCCCCCCCCCCC(=O)OCC(COC1OC(CS(=O)(=O)O)C(O)C(O)C1O)OC(=O)CCCCCCCCCCCCCCCCC (stereo unspecified)",
    "GI50": "> 100 µM (inactive)"
  },
  {
    "COMPOUND": "COc1cc(/C=C(\\C#N)c2nc3ccccc3o2)ccc1O",
    "GI50": "20.9 µM (inactive)"
  },
  {
    "COMPOUND": "COC(=O)c1cc(Cl)ccc1NC(=O)C1CCCCC1",
    "GI50": "> 100 µM (inactive)"
  },
  {
    "COMPOUND": "COc1ccc2oc(=O)c3c(c2c1C)OC(C)(C)C=C3",
    "GI50": "> 100 µM (inactive)"
  }
]

Turning now to a further record.
What does the record list as GI50 for `COc1cc(/C=C(\C)c2ccc3c(c2)OCO3)cc(OC)c1OC` ?
25.5 µM (inactive)

###

system: K562; experiment: NCI tumour cell line growth inhibition, 48 h
Calls of active or inactive are those of the source. Cut-off read from the data, not from the text of the source: active = GI50 up to about 1.1 µM and inactive = higher.
Outcome field: choose from t (active), f (inactive)

Any idea what this test logged for `Cn1c2ccc(C3=NCCN3)cc2c2cc(C3=NCCN3)ccc21` ?
f

For this compound, state the assay outcome: `Cc1nc2c(s/c(=N\N)n2-c2ccccc2)c(=O)[nH]1`
f

Would you mind telling me which call this test gave `Cc1cc(N(CCC#N)CCC#N)ccc1C(/N=N/c1ccc(Cl)cc1)=N\NC(=O)c1ccccc1` ?
f

State the result this test recorded for `O=c1c2ccccc2nc(-c2cc3c(cc2Cl)Sc2nccn2S3(=O)=O)n1-c1ccccc1` .
f

Just curious, what result did `COc1cc2c(NCCCCCCO[N+](=O)[O-])ncnc2c(OC)c1OC` get here?
f

###

tested on: CAKI-1; test: NCI tumour cell line growth inhibition, 48 h
Calls of active or inactive are those of the source. Rule as the data show it: active = GI50 up to about 1.1 µM and inactive = higher.
Answer each item with its documented GI50.

[
  {
    "COMPOUND": "CCSC1=N/C(=C/c2ccccc2O)C(=O)N1",
    "GI50": "> 100 µM (inactive)"
  },
  {
    "COMPOUND": "CCC1(O)C(=O)OCc2c1cc1n(c2=O)Cc2cc3ccc(CO)cc3nc2-1 (centres undefined)",
    "GI50": "2.97 µM (inactive)"
  }
]

Look up GI50 for the entries below, preserving their order.
1. CN1COCc2cc3cc4c(cc3nc21)OCCO4
2. COc1cc2c(c(OC)c1)[C@H](C)N(Cc1ccccc1)C(C)C2 (some centres undefined)
3. CC(=O)NC(Cc1ccc(OP(=O)(OCc2ccc([N+](=O)[O-])o2)N(C)CCCCCl)cc1)C(=O)NC(C)c1ccc(OCC2CCCCC2)c(C(N)=O)c1 (centres undefined)
4. O=C1C=CN(C2OC(CO)C(O)C2O)C(=O)C1 (centres undefined)
5. O=C(CC/C(CC(=O)c1ccc(Cl)cc1)=N\O)Nc1cccc(Cl)c1

1. 94.6 µM (inactive)
2. 64.9 µM (inactive)
3. 21.3 µM (inactive)
4. 22.3 µM (inactive)
5. > 100 µM (inactive)

For each entry beneath this line, provide reported GI50.
1. COc1ccc(Nc2nc(N)c(C(=O)c3cccs3)s2)cc1
2. Cc1cc2nc(C=C(C(F)(F)F)C(F)(F)F)sc2cc1C

["5 µM (inactive)", "2.64 µM (inactive)"]

###

I'd be grateful if you could share measured GI50 for these entries.
tested on: EKVX; experiment: NCI tumour cell line growth inhibition, 48 h
Activity calls are given as the source filed them. Rule as the data show it: active = GI50 up to about 1.1 µM and inactive = higher.

[
  {
    "COMPOUND": "O=c1c2ccccc2nc(-c2ccccc2Cl)n1NCC1(O)OCC(O)C(O)C1O (stereo not given)",
    "TARGET OF ASSAY": "EKVX",
    "GI50": "> 100 µM (inactive)"
  },
  {
    "COMPOUND": "CCOc1ccc(NC(=O)C(=O)CC(=O)c2c[n+]([O-])c3cc(C)c(C)cc3[n+]2[O-])cc1",
    "TARGET OF ASSAY": "EKVX",
    "GI50": "90.8 µM (inactive)"
  },
  {
    "COMPOUND": "C/C(=N\\NC(=O)c1ccncc1)c1ccccc1Cl",
    "TARGET OF ASSAY": "EKVX",
    "GI50": "> 100 µM (inactive)"
  },
  {
    "COMPOUND": "Cc1nc2ccccc2n1Cc1nnc2n1N=C(c1ccccc1)CS2",
    "TARGET OF ASSAY": "EKVX",
    "GI50": "34.3 µM (inactive)"
  }
]

What value of GI50 has been recorded for this entry: `N#CC1=C(N)N2C(=O)/C(=C/c3ccccc3O)N=C2S1`
51.9 µM (inactive)

###

test system: NCI-H23; assay: NCI tumour cell line growth inhibition, 48 h
Activity calls are given as the source filed them. No stated cut-off is given here; in the data, active = GI50 up to about 1.1 µM and inactive = higher.
Hi there, I'd appreciate the recorded GI50 for every entry that follows.

Take a look at these entries with their results.
[
  {
    "COMPOUND": "C=C[C@]1(C)CC(O)C2C(=C)C(=O)OC2[C@H]1C(=C)C=O (stereo partly drawn)",
    "TARGET OF ASSAY": "NCI-H23",
    "GI50": "2.68 µM (inactive)"
  },
  {
    "COMPOUND": "COc1cc([C@@H]2Oc3cc4oc(-c5ccccc5)cc(=O)c4c(O)c3O[C@H]2OC)ccc1O",
    "TARGET OF ASSAY": "NCI-H23",
    "GI50": "10.8 µM (inactive)"
  },
  {
    "COMPOUND": "COc1ccc2oc(=O)c3c(c2c1C)OC(C)(C)C=C3",
    "TARGET OF ASSAY": "NCI-H23",
    "GI50": "> 100 µM (inactive)"
  }
]

Please state GI50 for every compound in the list that follows.
1. Cn1c(=O)c2c(nc(C[N+]3([O-])CCOCC3)n2C)n(C)c1=O
2. CCC1=C(CC)C1(C#N)[N+](=O)[O-]
3. CCOC(=O)Cn1c(=O)c2nc(SC)sc2n(-c2ccccc2)c1=S
4. CCCCC[C@H]1CCCCCCCCCC(=O)OC2C(O[C@@H]3OC(C)[C@H](OC(=O)[C@@H](C)CC)C(O[C@@H]4OC(C)[C@H](O)C(O)[C@@H]4O)[C@@H]3OC(=O)[C@H](C)CC)[C@H](OC3C(O)[C@@H](O)C(C)O[C@H]3O1)OC(CO)[C@H]2O (stereo partly drawn)
5. Nn1c(=S)[nH]nc(/C=C/c2c(O)ccc3ccccc23)c1=O

1. > 100 µM (inactive)
2. > 100 µM (inactive)
3. 36.5 µM (inactive)
4. 17.9 µM (inactive)
5. 3.24 µM (inactive)

###

Kindly supply the reported GI50 values for the records listed here.
system: M14; assay: NCI tumour cell line growth inhibition, 48 h
Activity calls are given as the source filed them. Cut-off read from the data, not from the text of the source: active = GI50 up to about 1.1 µM and inactive = higher. Where a SMILES comes first, the peptide text is derived from it. [ ]: non-standard residue; d: D form. The star is where a group is joined. Chg = N[CH](C(=O)O)C1CCCCC1; Cbz = O=C(OCc1ccccc1)*; OBn = c1ccc(CO*)cc1

Check out these entries, answers already filled in.
[
  {
    "COMPOUND": "Cc1c(-c2ccccc2)[nH]n(C2=NCCN2)c1=O",
    "TARGET OF ASSAY": "M14",
    "GI50": "> 100 µM (inactive)"
  },
  {
    "COMPOUND": "C=C(CN(C)C)C(=O)c1ccccc1OC",
    "TARGET OF ASSAY": "M14",
    "GI50": "12 µM (inactive)"
  },
  {
    "COMPOUND": "CSC(=S)Nc1cc(C)ccn1",
    "TARGET OF ASSAY": "M14",
    "GI50": "> 100 µM (inactive)"
  },
  {
    "COMPOUND": "CCC1(c2ccc(OC)c(OC)c2)CCN2C(=O)C(O)CC21 (stereo unspecified)",
    "TARGET OF ASSAY": "M14",
    "GI50": "> 100 µM (inactive)"
  },
  {
    "COMPOUND": "COC(=O)CCC(NC(=S)N/N=C(\\C)c1cccs1)C(=O)OC (stereo unspecified)",
    "TARGET OF ASSAY": "M14",
    "GI50": "> 100 µM (inactive)"
  }
]

Quick batch: GI50 for everything below.
1. COC1C2c3cc4c(cc3CC(C#N)(c3ccccc32)N1C(=O)c1ccccc1)OCO4 (stereo unspecified)
2. CCOC(=O)/C=C/c1nc(C#N)c(N)o1
3. C[C@@H]1C2=CC[C@@]3(C)C(CCC3[C@H](C)[C@H]3C[C@@]4(C)O[C@@](c5cccnc5)(O3)OC4(C)C)[C@@H]2C2OC2[C@@]12CCC(=O)O2 (stereo partly specified)

> 100 µM (inactive)
> 100 µM (inactive)
26.1 µM (inactive)

Go through the list and state GI50 for each entry.
1. O=c1ccn(C2OC(CO)C(O)C2O)c(=O)[nH]1 (stereo unspecified)
2. COC(=O)C(NC(=O)C(CC(=O)OCc1ccccc1)NC(=O)OCc1ccccc1)C1CCCCC1 (stereo unspecified) (Cbz-Asp(OBn)-[Chg]-OMe; configuration not given here)
3. CCC(C(=O)c1ccc(OC)c(OC)c1)N(C(=O)C(F)(F)F)C(C)c1ccccc1 (stereo unspecified)

> 1000 µM (inactive)
> 100 µM (inactive)
> 100 µM (inactive)

Data provenance is ChEMBL document CHEMBL1201862.
